Value source: PubChem BioAssay (NCI)

System: HS 578T breast
PROTOCOL DESCRIPTION: NCI tumour cell line growth inhibition, 48 h
REPORTED ENDPOINT: TGI

compound=CN(CCc1ccccn1)C(=S)N/N=C(\c1ccccc1)c1ccccn1 system_name="HS 578T breast" reported_endpoint=TGI meas_value="> 26.4 µM"
compound="Brc1cccc(C2ON=C(c3ccccc3)N2C23CC4CC(CC(C4)C2)C3)c1 (centres undefined)" system_name="HS 578T breast" reported_endpoint=TGI meas_value="> 10 µM"
compound="CC1(C)Cc2c(Br)c(Br)c(Br)c(OCC(O)CN3CCN(c4ccccn4)CC3)c2O1 (centres undefined)" system_name="HS 578T breast" reported_endpoint=TGI meas_value="39.2 µM"

Query compound follows.
# compound Cc1ccc(-n2nnnc2-c2cnc(N3CCOCC3)nc2-c2cccc(C(F)(F)F)c2)cc1 ; its TGI = > 13.8 µM
